- Assay protocol: Antioxidant activity assessed as […] radical scavenging activity by spectrophotometric method relative to control
- Type: functional
- Design: concentration or dose not given beside the values
I would appreciate it if you labelled entries met when Activity is 30% or higher, otherwise not met.

• Cc1oc2cc(OCC(O)CSC(=S)N3CCN(c4ccc(F)cc4)CC3)ccc2c(=O)c1C (stereo not given) = not met
• COc1ccccc1N1CCN(C(=S)SCC(O)COc2ccc3c(=O)c(C)c(C)oc3c2)CC1 (stereo not given) = met
• Cc1oc2cc(OCC(O)CSC(=S)N3CCC(Cc4ccccc4)CC3)ccc2c(=O)c1C (stereo not given) = met
• Cc1oc2cc(OCC(O)CSC(=S)N3CCN(Cc4ccc5c(c4)OCO5)CC3)ccc2c(=O)c1C (stereo not given) = met
• Cc1oc2cc(OCC(O)CSC(=S)N3CCN(c4ccccc4)CC3)ccc2c(=O)c1C (stereo not given) = not met
• Cc1oc2cc(OCC(O)CSC(=S)N3CCOCC3)ccc2c(=O)c1C (stereo not given) = met

###

Entries and their measured IC50 follow.
- Assay protocol: Antioxidant activity assessed as inhibition of […] radical by spectrophotometric method
- Assay type: functional
Assay readout: IC50 (µM)

- Cc1oc2cc(OCC(O)CSC(=S)N3CCN(c4ccccc4)CC3)ccc2c(=O)c1C (stereo not given): 2240
- CCN(CC)C(=S)SCC(O)COc1ccc2c(=O)c(C)c(C)oc2c1 (stereo not given): 1710
- Cc1oc2cc(OCC(O)CSC(=S)N3CCN(c4ccc(F)cc4)CC3)ccc2c(=O)c1C (stereo not given): 2040
- Cc1oc2cc(OCC(O)CSC(=S)N3CCN(C)CC3)ccc2c(=O)c1C (stereo not given): 1720
- Cc1oc2cc(OCC(O)CSC(=S)N3CCN(C(c4ccccc4)c4ccccc4)CC3)ccc2c(=O)c1C (stereo not given): 1620
- O=C1O[C@H]([C@@H](O)CO)C(O)=C1O: 1640
- Cc1oc2cc(OCC(O)CSC(=S)N3CCOCC3)ccc2c(=O)c1C (stereo not given): 1400
- Cc1oc2cc(OCC(O)CSC(=S)N3CCC(Cc4ccccc4)CC3)ccc2c(=O)c1C (stereo not given): 1570
- COc1ccccc1N1CCN(C(=S)SCC(O)COc2ccc3c(=O)c(C)c(C)oc3c2)CC1 (stereo not given): 1590
- Cc1oc2cc(OCC(O)CSC(=S)N3CCN(Cc4ccc5c(c4)OCO5)CC3)ccc2c(=O)c1C (stereo not given): 1380

###

- Assay protocol: Antioxidant activity assessed as […] radical scavenging activity by spectrophotometric method relative to control
- Format: functional
- Design: concentration or dose not given beside the values
Assay readout: Activity (%)

* Cc1oc2cc(OCC(O)CSC(=S)N3CCN(C(c4ccccc4)c4ccccc4)CC3)ccc2c(=O)c1C (centres undefined) | 30.9
* O=C1O[C@H]([C@@H](O)CO)C(O)=C1O | 30.4
* CCN(CC)C(=S)SCC(O)COc1ccc2c(=O)c(C)c(C)oc2c1 (centres undefined) | 29.5
* Cc1oc2cc(OCC(O)CSC(=S)N3CCN(C)CC3)ccc2c(=O)c1C (centres undefined) | 29.4
